Measured values drawn from the RNAGym collection of RNA variant scans (doi:10.7554/elife.80360) for this set.

B1: CPEB3 Ribozyme (parent)
chain: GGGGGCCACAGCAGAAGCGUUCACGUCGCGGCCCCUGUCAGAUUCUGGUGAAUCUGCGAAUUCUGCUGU

variants of: B1; experiment: self-cleavage, relative activity (ratio to wild type); higher = more cleavage; co-transcriptional
Outcome measure: self-cleavage

Worked set:
GGGGGCCACAGCAGAGGCGUUCACGUCGCGGCCCCUGUCAGAUUCUGGUGAAUCUGCGGAUUCUGCUGU [A16G A59G] = 0.944
GGGGGCCACAGCAGUAGCGUUCCCGUCGCGGCCCCUGUCAGAUUCUGGUGAAUCUGCGAAUUCUGCUGU [A15U A23C] = 0.723
GGGGGCCACAGCAGAAACGUUCACGUCGCGGCCCCUGUCAUAUUCUGGUGAAUCUGCGAAUUCUGCUGU [G17A G41U] = 0.183

Read the next record carefully.
Item GGGGACCACAGCAGAAGCGUUCACGUCGCGGCCCCUGUCAGAUUCUGGUGAAUCUGCGAAUUCUGCCGU [G5A U67C] has what recorded self-cleavage?
0.963
